# experimentalDetails: Selectivity index, ratio of CC50 for human MT4 cells to EC50 for HIV1 3B
# Type: toxicity, cell-based
# testConditions: read-out: Ratio CC50/EC50
As shown below, each of these molecules has a reported selectivity ratio value.

structureSmilesString: Cc1cnc(Nc2ccc(C#N)cc2)nc1NC1CCCC1
selectivity ratio: < 1
//
structureSmilesString: Cc1cc(C#N)cc(C)c1Oc1nc(Nc2ccc(C#N)cc2)nc(N)c1Br
selectivity ratio: 12900
//
structureSmilesString: O=C1Nc2ccc(Cl)cc2[C@@](C#CC2CC2)(C(F)(F)F)O1
selectivity ratio: > 1150
//
structureSmilesString: Cc1cnc(Nc2ccc(C#N)cc2)nc1NC1CCCCC1
selectivity ratio: < 1
//
structureSmilesString: Cc1cc(NC2CCCC2)nc(Nc2ccc(C#N)cc2)n1
selectivity ratio: < 1
//
structureSmilesString: Cc1cc(OC2CCCC2)nc(Nc2ccc(C#N)cc2)n1
selectivity ratio: < 1
//
structureSmilesString: Cc1cnc(Nc2ccc(C#N)cc2)nc1OC1CCCCC1
selectivity ratio: 5
//
structureSmilesString: Cc1cc(OC2CCCCC2)nc(Nc2ccc(C#N)cc2)n1
selectivity ratio: < 1
//
structureSmilesString: Cc1cnc(Nc2ccc(C#N)cc2)nc1NC1CC1
selectivity ratio: < 1
//
structureSmilesString: Cc1cc(NC2CC2)nc(Nc2ccc(C#N)cc2)n1
selectivity ratio: < 1
//
structureSmilesString: Cc1cnc(Nc2ccc(C#N)cc2)nc1SC1CCCCC1
selectivity ratio: 79
//
structureSmilesString: N#Cc1ccc(Nc2nccc(SC3CCCCC3)n2)cc1
selectivity ratio: > 7290

###

# experimentalDetails: Cytotoxicity against human MT4 cells measured by MTT assay
# Format: cell-based
readoutName: CC50

compound: Cc1cn([C@H]2C[C@H](N=[N+]=[N-])[C@@H](CO)O2)c(=O)[nH]c1=O [ZIDOVUDINE]
observed: ≥ 46.4 µM
--
compound: Cc1ccnc2c1NC(=O)c1cccnc1N2C1CC1 [NEVIRAPINE]
observed: > 15 µM
--
compound: O=C1Nc2ccc(Cl)cc2[C@@](C#CC2CC2)(C(F)(F)F)O1 [EFAVIRENZ]
observed: > 6.34 µM

###

# experimentalDetails: Cytotoxicity against human MT4 cells measured by MTT assay
# Format: cell-based
// reported CC50 for each item listed

structureSmilesString: N#Cc1ccc(Nc2nccc(SC3CCCCC3)n2)cc1
endpointUnit: µM
limitSign: >
CC50: 403
//
structureSmilesString: N#Cc1ccc(Nc2nccc(OC3CCCC3)n2)cc1
endpointUnit: µM
limitSign: ≥
CC50: 340
//
structureSmilesString: CC(C)Nc1cccnc1N1CCN(C(=O)c2cc3cc(NS(C)(=O)=O)ccc3[nH]2)CC1
endpointUnit: µM
limitSign: >
CC50: 4.39
//
structureSmilesString: Cc1cnc(Nc2ccc(C#N)cc2)nc1NC1CCCCC1
endpointUnit: µM
limitSign: =
CC50: 1.3
//
structureSmilesString: Cc1cc(SC2CCCCC2)nc(Nc2ccc(C#N)cc2)n1
endpointUnit: µM
limitSign: ≥
CC50: 192
//
structureSmilesString: N#Cc1ccc(Nc2nccc(NC3CCCCC3)n2)cc1
endpointUnit: µM
limitSign: =
CC50: 7.33
//
structureSmilesString: Cc1cc(C#N)cc(C)c1Oc1nc(Nc2ccc(C#N)cc2)nc(N)c1Br
endpointUnit: µM
limitSign: =
CC50: 27.8
//
structureSmilesString: Cc1cnc(Nc2ccc(C#N)cc2)nc1OC1CCCC1
endpointUnit: µM
limitSign: =
CC50: 9.99
